- assay.protocol: Solubility studies in water, FaSSIF, FeSSIF and FaSSGF (excess solids in 5 mL medium at 37° C., HPLC; pH, XRPD and NMR of remaining material)
- Assay type: physicochemical
- experimental.context: FaSSIF, 37 °C, thermodynamic from solid, 24 hours
Catalogue of molecules with associated solubility at 24 h
Write it as a number; the unit µg/mL goes unstated.

# molecule, measured.parameter, reading
records = [
    ("CC(C)c1cnn2c(N[C@@H]3CCc4[nH]c5ccccc5c4C3)nc(-c3cncc(F)c3)nc12.CS(=O)(=O)O [Compound 3 Form B]", "solubility at 24 h", 16),
]

Here is another molecule to look at.
Output solubility at 24 h of CC(C)c1cnn2c(N[C@@H]3CCc4[nH]c5ccccc5c4C3)nc(-c3cncc(F)c3)nc12.CCS(=O)(=O)O [Compound 1 Form B]
18
